conditions: in toluene, 285.65 K
observation.type: solubility (mole fraction)
Give only the figure.

I'd like to know its solubility (mole fraction). The molecule in question is O=Cc1ccc(O)cc1
0.00133

====

details: in n-propanol, 288.15 K
observation.type: solubility (mole fraction)
Give only the figure.

I'd like to know its solubility (mole fraction). The compound in question is O=Cc1ccc(O)cc1
0.0836

====

conditions: in methanol, 293.15 K
observation.type: solubility (mole fraction)
Give only the figure.

I'd like to know its solubility (mole fraction). The compound in question is O=Cc1ccc(O)cc1
0.076

====

settings: in ethanol, 290.65 K
observation.type: solubility (mole fraction)
Give only the figure.

I'd like to know its solubility (mole fraction). The compound in question is O=Cc1ccc(O)cc1
0.0815
